src = patent US9162993B2

# Lookup of reported inhibition at 5 µM keyed by entry
Test system: RANKL-induced osteoclast differentiation in RAW 264.7 cells
Assay: TRAP staining, RANKL-induced osteoclast differentiation (TRAP+ multinucleated cells)
Type: cell-based, murine
Conditions: Mus musculus, RAW264.7; RAW 264.7 cells, RANKL (100 ng/mL), compounds at 5 μM, TRAP-positive multinucleated cells; read-out: Inhibition of MNCs (%)
readout: inhibition at 5 µM (%)

compound	measurement_unit	experimental_result
N#Cc1ccc(NC(=O)c2cc(-c3ccc(F)cc3F)ccc2O)cc1 [compound 10]	%	13.9
N#Cc1cccc(NC(=O)c2cc(-c3ccc(F)cc3F)ccc2O)c1 [compound 9]	%	71.3
O=c1oc2ccc(-c3ccc(F)cc3F)cc2c(=O)n1-c1ccc(C(F)(F)F)cc1 [compound 19]	%	16.9
O=C(Nc1ccc(F)cc1F)c1cc(-c2ccc(F)cc2F)ccc1O [compound 2]	%	32.2
C#Cc1cccc(-n2c(=O)oc3ccc(-c4ccc(F)cc4F)cc3c2=O)c1 [compound 20]	%	57.5
O=c1oc2ccc(-c3ccc(F)cc3F)cc2c(=O)n1-c1ccc(F)cc1F [compound 14]	%	42.3
N#Cc1cccc(-n2c(=O)oc3ccc(-c4ccc(F)cc4F)cc3c2=O)c1 [compound 21]	%	34
O=c1oc2ccc(-c3ccc(F)cc3F)cc2c(=O)n1-c1ccc(Cl)cc1F [compound 13]	%	19.4
N#Cc1ccc(-n2c(=O)oc3ccc(-c4ccc(F)cc4F)cc3c2=O)cc1 [compound 22]	%	29.4

* * *

System: RAW 264.7 cells
Assay: MTT assay, RAW264.7 cell viability
Type: cell-based
Settings: MTT assay, compounds at 5 μM
Measured Cell viability (%) values are reported for all entries that follow.

smiles_string	measured_on	Cell viability (%)
N#Cc1cccc(NC(=O)c2cc(-c3ccc(F)cc3F)ccc2O)c1	RAW 264.7 cells	72.15
N#Cc1ccc(NC(=O)c2cc(-c3ccc(F)cc3F)ccc2O)cc1	RAW 264.7 cells	96.24
O=c1oc2ccc(-c3ccc(F)cc3F)cc2c(=O)n1-c1cccc(C(F)(F)F)c1	RAW 264.7 cells	100.13
COc1cccc(-n2c(=O)oc3ccc(-c4ccc(F)cc4F)cc3c2=O)c1	RAW 264.7 cells	105.53
O=c1oc2ccc(-c3ccc(F)cc3F)cc2c(=O)n1-c1ccc(F)c(F)c1	RAW 264.7 cells	72.15
O=C(Nc1ccc(F)cc1F)c1cc(-c2ccc(F)cc2F)ccc1O	RAW 264.7 cells	109.62
O=C(Nc1ccc(C(F)(F)F)cc1)c1cc(-c2ccc(F)cc2F)ccc1O	RAW 264.7 cells	85.22
O=C(Nc1cc(F)ccc1F)c1cc(-c2ccc(F)cc2F)ccc1O	RAW 264.7 cells	102.46
O=c1oc2ccc(-c3ccc(F)cc3F)cc2c(=O)n1-c1ccccc1C(F)(F)F	RAW 264.7 cells	95.53
O=C(Nc1ccc(Cl)cc1F)c1cc(-c2ccc(F)cc2F)ccc1O	RAW 264.7 cells	77.54
C#Cc1cccc(NC(=O)c2cc(-c3ccc(F)cc3F)ccc2O)c1	RAW 264.7 cells	62.95
O=C(Nc1ccc(F)c(F)c1)c1cc(-c2ccc(F)cc2F)ccc1O	RAW 264.7 cells	78.42
O=c1oc2ccc(-c3ccc(F)cc3F)cc2c(=O)n1-c1ccc(C(F)(F)F)cc1	RAW 264.7 cells	103.01
O=c1oc2ccc(-c3ccc(F)cc3F)cc2c(=O)n1-c1cc(F)ccc1F	RAW 264.7 cells	86.60
C#Cc1cccc(-n2c(=O)oc3ccc(-c4ccc(F)cc4F)cc3c2=O)c1	RAW 264.7 cells	88.38
COc1ccc(-n2c(=O)oc3ccc(-c4ccc(F)cc4F)cc3c2=O)cc1OC	RAW 264.7 cells	103.05

* * *

Each entry below lists one item and its recorded CC50 value.
Experiment: MTT assay, RAW264.7 cell viability
Assay type: cell-based
Conditions: mouse; RAW 264.7 cells; cytotoxic concentration that produces 50% cell death
readout: CC50 (µM)

compound	qualifier_symbol	experimental_result
O=c1oc2ccc(-c3ccc(F)cc3F)cc2c(=O)n1-c1ccc(F)c(F)c1 [compound 15]	=	9.96
COc1cccc(NC(=O)c2cc(-c3ccc(F)cc3F)ccc2O)c1 [compound 12]	>	20
O=C(Nc1ccc(Cl)cc1F)c1cc(-c2ccc(F)cc2F)ccc1O [compound 1]	=	17.9
O=c1oc2ccc(-c3ccc(F)cc3F)cc2c(=O)n1-c1ccc(Cl)cc1F [compound 13]	>	20
C#Cc1cccc(-n2c(=O)oc3ccc(-c4ccc(F)cc4F)cc3c2=O)c1 [compound 20]	=	11

* * *

Tested on: RANKL-induced osteoclast differentiation in RAW 264.7 cells
Assay: TRAP staining, RANKL-induced osteoclast differentiation (TRAP+ multinucleated cells)
Format: cell-based, murine
Details: Mus musculus; RAW264.7, different concentrations of compound, FIG. 1A; read-out: TRAP inhibitory activity IC50
readout: IC50 (µM)

smiles_string	qualifier_symbol	experimental_result
O=C(Nc1cc(F)ccc1F)c1cc(-c2ccc(F)cc2F)ccc1O	=	3.89
O=c1oc2ccc(-c3ccc(F)cc3F)cc2c(=O)n1-c1cc(F)ccc1F	<	2.5
